Listed here: items and their measured melting point.

// solved cases for melting point follow
>>> experimental_result("CC(C)Nc1nc(Cl)nc(Cl)c1[N+](=O)[O-]")
"65 °C"
>>> experimental_result("O=C1NS(=O)(=O)CCC1c1ccc([N+](=O)[O-])cc1F (configuration not stated)")
"218 to 219 °C"
>>> experimental_result("COc1nc2c(Cl)cccc2s1")
"55 to 57 °C"
>>> experimental_result("COc1ccc2c(c1)C=C(C(=O)N1CCN(C(=O)c3cc(OC)c(OC)c(OC)c3)CC1)CCO2")
"110 to 115 °C"
>>> experimental_result("Cc1ccc(C)c(-c2c3ccccc3nc3ccc(NC(=O)c4ccccc4)cc23)c1")
"253 to 255 °C"

Query: What does the data say about its melting point? Entry: `CCN(C(=O)c1ccc2nonc2c1)C1CCOCC1`
Response: 102 to 104 °C

Query: Now this one: CCOC1CC(n2cc(CC)c(=O)[nH]c2=O)OC1CO (configuration not stated)
Response: 157 °C

Query: Now this one: `CC(C)(C)OC(=O)CN1C(=O)C(=O)c2ccccc21`
Response: 119 to 121 °C

Query: Now this one: N#CC(C(N)=O)c1ccccc1[N+](=O)[O-] (configuration not stated)
Response: 172 to 174 °C

Query: Now this one: `CCc1nc2c(-c3ccc(OC(F)(F)F)cc3Cl)ncnc2n1C(C1CC1)C1CC1`
Response: 119 to 120 °C

Query: Now this one: `CC1(C)CCC(C)(C)c2cc(CCCO)c(/C=C/c3ccc(C(=O)O)cc3)cc21`
Response: 213 °C

Query: Now this one: `CCOC(=O)c1cn(-c2nnc(C)s2)cn1`
Response: 121 to 122 °C
